- PROTOCOL_DETAILS: Apparent permeability in MDCK-MDR1 cells
- Type: ADME, cell-based, Canis lupus familiaris
- EXPERIMENTAL_CONTEXT: dog
EXPERIMENTAL_ENDPOINT: Papp (×10⁻⁶ cm/s)

INSERT INTO assay_data (compound, measured_result) VALUES
  ('CS(=N)(=O)c1cccc(NC(=O)c2cc(C(F)(F)F)cnc2Oc2ccc(F)cc2Cl)c1 (stereo not drawn)', 15.5);

A: COc1cc(F)ccc1Oc1cc(C(F)(F)F)ncc1C(=O)Nc1ccnnc1
B: Cc1cc(F)ccc1Oc1ncc(C(F)(F)F)cc1C(=O)Nc1cccc([S@](C)(=N)=O)c1
q: Smaller Papp value, A vs B ? Lab log: write the label of the selected item as the result.
a: B
(B: 18.1 ×10⁻⁶ cm/s, A: 63 ×10⁻⁶ cm/s)
